Measured values drawn from PubChem BioAssay AID179 for this set.

System: CEM cells HIV-1 protection, formazan growth assay
Test: NCI AIDS Antiviral Assay;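 active means compounds giving half or more protection of infected cells from virus-caused growth loss, again on retest; inactive means the rest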
Result category, one only: 1 (yes) = active, 0 (no) = inactive

>  <MOLECULE>
S=c1n(-c2ccc(Cl)cc2)c2nc3ccccc3nc(/c2=N\Nc2cc(Cl)ccc2Cl)n1-c1ccccn1

>  <SYSTEM_NAME>
CEM cells HIV-1 protection, formazan growth assay

>  <ASSIGNED_CATEGORY>
0 (no)

$$$$
>  <MOLECULE>
O=c1c(OS(=O)(=O)O)c(-c2ccc(OS(=O)(=O)O)cc2OS(=O)(=O)O)oc2cc(OS(=O)(=O)O)cc(OS(=O)(=O)O)c12

>  <SYSTEM_NAME>
CEM cells HIV-1 protection, formazan growth assay

>  <ASSIGNED_CATEGORY>
0 (no)

$$$$
>  <MOLECULE>
O=c1c2ccccc2sc2ccccc12

>  <SYSTEM_NAME>
CEM cells HIV-1 protection, formazan growth assay

>  <ASSIGNED_CATEGORY>
0 (no)

$$$$
>  <MOLECULE>
CC(C)=CCC1(c2ccccc2)Oc2ccccc2-n2cccc2C1=O (stereo not drawn)

>  <SYSTEM_NAME>
CEM cells HIV-1 protection, formazan growth assay

>  <ASSIGNED_CATEGORY>
0 (no)

$$$$
>  <MOLECULE>
CC(C)N(CCCNc1c2ccccc2nc2cccc([N+](=O)[O-])c12)C(C)C

>  <SYSTEM_NAME>
CEM cells HIV-1 protection, formazan growth assay

>  <ASSIGNED_CATEGORY>
0 (no)

$$$$

Name the outcome recorded for C=CCCC(CCC=C)(C(=O)O)C(=O)O in the assay. 0 (no)

Name the outcome recorded for COc1cc2c(o1)C(=O)N1CCc3c([nH]c4ccccc34)C21 (stereo not drawn) in the assay. 0 (no)

Name the outcome recorded for CN=C(N)c1ccc(N=C(N)c2cccc(C(N)=Nc3ccc(C(N)=NC)cc3)c2)cc1 in the assay. 0 (no)

Name the outcome recorded for CCN1CCC(O)(c2ccc([N+](=O)[O-])cc2)C(C(=O)c2ccc([N+](=O)[O-])cc2)C1 (stereo not drawn) in the assay. 0 (no)
